Entries with reported MIC on P. morganii
Structures can show the parent of a compound that is named as a salt.
# unit: mg/L | format: bare number

Worked set:
compound	unitAnnotation	measuredNumber
CO[C@@]1(NC(=O)C(c2ccccc2F)S(=O)(=O)O)C(=O)N2[C@@H](C(=O)O)C(C)(C)S[C@@H]21 (some centres unmarked) [Example 9]	mg/L	5
CO[C@@]1(NC(=O)C(c2ccc(O)cc2)S(=O)(=O)O)C(=O)N2[C@@H](C(=O)O)C(C)(C)S[C@@H]21 (some centres unmarked) [Example 8]	mg/L	25

Form field, MIC with P. morganii, item CO[C@@]1(NC(=O)C(c2ccc(N)cc2)S(=O)(=O)O)C(=O)N2[C@@H](C(=O)O)C(C)(C)S[C@@H]21 (some centres unmarked) [Example 4] : 5

Form field, MIC with P. morganii, item CO[C@@]1(NC(=O)C(c2ccccc2)S(=O)(=O)O)C(=O)N2[C@@H](C(=O)O)C(C)(C)S[C@@H]21 (some centres unmarked) [Example 1] : 10

Form field, MIC with P. morganii, item CO[C@@]1(NC(=O)C(c2ccccc2)P(=O)(O)OC)C(=O)N2[C@@H](C(=O)O)C(C)(C)S[C@@H]21 (some centres unmarked) [Example 6, disodium salt] : 50

====

Recorded MIC, one value per entry.
tested on: E. coli JT 425; experiment: MIC against E. coli JT 425; format: cell-based; conditions: Escherichia coli, JT425; E. coli JT 425; read-out: MIC
# unit: µg/mL | format: bare number

Worked set:
> print(dat)
                                   compound  measurednumber
1  CO[C@@]1(NC(=O)C(c2ccc(N)cc2)S(=O)(=O)O)C(=O)N2[C@@H](C(=O)O)C(C)(C)S[C@@H]21 (stereo partly shown)              10
2  CO[C@@]1(NC(=O)C(c2ccccc2)S(=O)(=O)O)C(=O)N2[C@@H](C(=O)O)C(C)(C)S[C@@H]21 (stereo partly shown)              10
3  CO[C@@]1(NC(=O)C(c2ccccc2F)S(=O)(=O)O)C(=O)N2[C@@H](C(=O)O)C(C)(C)S[C@@H]21 (stereo partly shown)              10

Turning to the following compound.
# compound CO[C@@]1(NC(=O)C(c2ccc(O)cc2)S(=O)(=O)O)C(=O)N2[C@@H](C(=O)O)C(C)(C)S[C@@H]21 (stereo partly shown) ; its MIC = 25

====

tested on: E. coli NCTC 10418
Where a name gives a salt, the structure may show the parent alone.
resultType: MIC (µg/mL)
# unit: µg/mL | format: bare number

molecule	resultType	unitAnnotation	measuredNumber
CO[C@@]1(NC(=O)C(c2ccc(N)cc2)S(=O)(=O)O)C(=O)N2[C@@H](C(=O)O)C(C)(C)S[C@@H]21 (some centres unmarked)	MIC	µg/mL	10
CO[C@@]1(NC(=O)C(c2ccccc2F)S(=O)(=O)O)C(=O)N2[C@@H](C(=O)O)C(C)(C)S[C@@H]21 (some centres unmarked)	MIC	µg/mL	10
CO[C@@]1(NC(=O)C(c2ccccc2)S(=O)(=O)O)C(=O)N2[C@@H](C(=O)O)C(C)(C)S[C@@H]21 (some centres unmarked)	MIC	µg/mL	25

# molecule CO[C@@]1(NC(=O)C(c2ccc(O)cc2)S(=O)(=O)O)C(=O)N2[C@@H](C(=O)O)C(C)(C)S[C@@H]21 (some centres unmarked) ; its MIC = 25

# molecule CO[C@@]1(NC(=O)C(c2ccccc2)P(=O)(O)OC)C(=O)N2[C@@H](C(=O)O)C(C)(C)S[C@@H]21 (some centres unmarked) [Example 6, disodium salt] ; its MIC = 50
